- TARGET_OF_ASSAY: hNav1.7 (Homo sapiens (Human), UniProt Q15858)
- Sequence (Q15858 other isoform, or with tags, fused parts or gaps): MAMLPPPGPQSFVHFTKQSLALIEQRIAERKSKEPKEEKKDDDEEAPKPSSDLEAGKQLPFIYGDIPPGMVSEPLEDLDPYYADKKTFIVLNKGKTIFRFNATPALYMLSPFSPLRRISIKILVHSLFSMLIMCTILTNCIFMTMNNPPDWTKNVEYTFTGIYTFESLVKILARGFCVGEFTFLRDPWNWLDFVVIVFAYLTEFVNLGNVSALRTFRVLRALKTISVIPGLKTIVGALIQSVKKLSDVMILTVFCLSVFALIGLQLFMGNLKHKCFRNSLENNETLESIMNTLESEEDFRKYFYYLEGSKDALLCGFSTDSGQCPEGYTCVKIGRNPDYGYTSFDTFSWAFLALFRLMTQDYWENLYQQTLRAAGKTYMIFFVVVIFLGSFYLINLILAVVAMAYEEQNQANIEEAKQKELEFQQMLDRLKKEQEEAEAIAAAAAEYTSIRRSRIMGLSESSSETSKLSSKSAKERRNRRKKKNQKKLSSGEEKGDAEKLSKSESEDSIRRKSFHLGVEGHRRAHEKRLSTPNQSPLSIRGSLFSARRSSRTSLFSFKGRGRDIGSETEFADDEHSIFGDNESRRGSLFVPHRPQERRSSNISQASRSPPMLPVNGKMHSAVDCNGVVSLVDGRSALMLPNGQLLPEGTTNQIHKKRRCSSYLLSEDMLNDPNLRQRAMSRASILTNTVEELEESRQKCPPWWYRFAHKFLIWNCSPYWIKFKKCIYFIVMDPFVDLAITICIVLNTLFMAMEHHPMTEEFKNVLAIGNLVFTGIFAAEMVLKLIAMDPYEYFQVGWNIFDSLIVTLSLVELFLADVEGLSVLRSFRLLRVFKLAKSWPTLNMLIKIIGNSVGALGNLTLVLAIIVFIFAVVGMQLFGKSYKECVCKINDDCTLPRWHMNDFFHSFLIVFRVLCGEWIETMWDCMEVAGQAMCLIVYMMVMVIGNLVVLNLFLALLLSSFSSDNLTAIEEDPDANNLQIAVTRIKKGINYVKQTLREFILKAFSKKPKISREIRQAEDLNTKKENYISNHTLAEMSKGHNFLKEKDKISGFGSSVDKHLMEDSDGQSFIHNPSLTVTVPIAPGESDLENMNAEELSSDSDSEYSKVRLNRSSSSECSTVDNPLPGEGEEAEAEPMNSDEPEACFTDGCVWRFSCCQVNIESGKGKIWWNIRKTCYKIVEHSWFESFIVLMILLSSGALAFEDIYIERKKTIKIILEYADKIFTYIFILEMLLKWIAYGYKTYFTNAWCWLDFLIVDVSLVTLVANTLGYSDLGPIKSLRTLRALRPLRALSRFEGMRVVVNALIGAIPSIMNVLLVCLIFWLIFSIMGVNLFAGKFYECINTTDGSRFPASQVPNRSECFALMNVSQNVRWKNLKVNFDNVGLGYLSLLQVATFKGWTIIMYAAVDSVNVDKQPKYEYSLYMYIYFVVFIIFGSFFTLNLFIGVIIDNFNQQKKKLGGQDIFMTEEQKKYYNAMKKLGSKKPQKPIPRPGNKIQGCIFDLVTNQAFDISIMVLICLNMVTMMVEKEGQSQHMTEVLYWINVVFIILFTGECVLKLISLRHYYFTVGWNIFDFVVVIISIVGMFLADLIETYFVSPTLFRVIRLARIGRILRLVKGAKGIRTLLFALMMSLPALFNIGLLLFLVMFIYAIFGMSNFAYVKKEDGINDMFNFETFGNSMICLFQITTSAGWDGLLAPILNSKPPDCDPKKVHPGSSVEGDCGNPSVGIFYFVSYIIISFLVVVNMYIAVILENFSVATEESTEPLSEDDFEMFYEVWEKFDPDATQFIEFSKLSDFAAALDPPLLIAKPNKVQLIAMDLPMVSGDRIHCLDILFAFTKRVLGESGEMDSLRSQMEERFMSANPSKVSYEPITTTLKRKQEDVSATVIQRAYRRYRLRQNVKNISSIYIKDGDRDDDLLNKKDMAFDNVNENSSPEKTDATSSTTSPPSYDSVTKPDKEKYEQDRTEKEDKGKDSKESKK
- EXPERIMENTAL_PROTOCOL: Electrophysiology (EP) whole-cell patch clamp assay
- Assay type: cell-based
- EXPERIMENTAL_CONDITIONS: read-out: Nav1.7 Activity EP assay Ki
QUANTITY_NAME: Ki (nM)
Kindly provide the numeric value in nM only, without the unit symbol.

1) C[C@H](Nc1cc(C(N)=O)nc(-c2ccc(Oc3ccc(F)cc3)cc2)n1)C(N)=O [Cpd No. 1]
57

Now take the following molecule into account.
# input Dear colleague, I am looking for the recorded Ki of the following molecule: C[C@@H](Nc1cc(C(N)=O)nc(-c2ccc(Oc3ccc(F)cc3)cc2)n1)C(N)=O [Cpd No. 21]
# output 230

###

We begin with a simple list: items and their reported pIC50.
- TARGET_OF_ASSAY: human Nav1.7 (Homo sapiens (Human), UniProt Q15858)
- EXPERIMENTAL_PROTOCOL: FLIPR sodium dye assay (CoroNa Green) with KCl and test article pre-incubation
- Type: cell-based
- EXPERIMENTAL_CONDITIONS: read-out: Nav1.7 Activity FLIPR assay IC50
Remember the convention: pIC50 equals -log10 of concentration in molar.

// solved cases for pIC50 follow
1) NC(=O)c1cc(N2CCNCC2CO)nc(-c2ccc(Oc3ccc(F)cc3)cc2)n1 (centres unmarked)
6.77
2) NC(=O)c1cc(N2CCC[C@H]2C(N)=O)nc(-c2ccc(Oc3ccc(F)cc3)cc2)n1
6.59

# input Dear colleague, I am looking for the recorded pIC50 of the following compound: COC(=O)[C@H](C)Nc1cc(C(=O)O)nc(-c2ccc(Oc3ccc(F)cc3)cc2)n1
# output 6.01

# input Dear colleague, I am looking for the recorded pIC50 of the following compound: C[C@@H](C(N)=O)N(C)c1cc(C(N)=O)nc(-c2ccc(Oc3ccc(F)cc3)cc2)n1
# output 6.66

###

- TARGET_OF_ASSAY: human Nav1.7 (Homo sapiens (Human), UniProt Q15858)
- EXPERIMENTAL_PROTOCOL: FLIPR sodium dye assay (CoroNa Green) with KCl and test article pre-incubation
- Assay type: cell-based
- EXPERIMENTAL_CONDITIONS: recombinant human Nav1.7 in HEK293; veratridine and scorpion venom agonists; read-out: Nav1.7 Activity FLIPR assay IC50
pIC50: −log10 of the molar value.
We begin with a simple list: items and their reported pIC50.

// solved cases for pIC50 follow
1. C[C@H](Nc1cc(C(N)=O)nc(-c2ccc(Oc3ccc(F)cc3)cc2)n1)C(=O)O [Cpd No. 28]
4.70 to 5.00
2. C[C@H](Nc1cc(C(N)=O)nc(-c2ccc(Oc3ccc(C#N)cc3)cc2)n1)C(N)=O [Cpd No. 66]
6.39
3. C[C@H](Nc1cc(C(N)=O)nc(-c2ccc(Oc3ccc(C#N)cn3)cc2)n1)C(N)=O [Cpd No. 37]
4.70 to 5.00

Now take the following compound into account.
# input Dear colleague, I am looking for the recorded pIC50 of the following compound: NC(=O)CCNc1cc(C(N)=O)nc(-c2ccc(Oc3ccc(F)cc3)cc2)n1 [Cpd No. 19]
# output < 4.70

###

- TARGET_OF_ASSAY: human Nav1.7 (Homo sapiens (Human), UniProt Q15858)
- EXPERIMENTAL_PROTOCOL: FLIPR sodium dye assay (CoroNa Green) with KCl and test article pre-incubation
- Assay type: cell-based
pIC50: −log10 of the molar value.
QUANTITY_NAME: pIC50

# input Dear colleague, I am looking for the recorded pIC50 of the following compound: NC(=O)c1cc(N2CCCC(C(N)=O)C2)nc(-c2ccc(Oc3ccc(F)cc3)cc2)n1 (stereo not shown)
# output 4.70 to 5.00

// provenance: patent US9163008B2
